Numbers sourced from the array DNA melting data of Ke et al. (doi:10.1101/2024.01.08.574731).

# protocol.summary: folding enthalpy; higher = less favourable; fluorescence melt of hairpins on a sequencing array, two-state fit
# test.conditions: sodium 0.088 M
We use -30 kcal/mol as the dividing line for folding enthalpy: on or above the line is 1, below is 0.

Sample answers from the record:
{"columns": ["seq", "category.label"],
 "data": [
  ["GAGTCCGAAAGGACCCTC ((((((....)))..)))", 1],
  ["GGTGCCGAAAGGCCTACC ((((((....)))..)))", 1],
  ["CGCGGAAGCTCCGCG ((((((...))))))", 1],
  ["GCATGCGAAAGCAACTGC ((((((....)))..)))", 1],
  ["GAATGCCGAAAGGCGTTC (((.(((....))).)))", 1]
]}

Proceed to the following item.
Textbook exercise: given the entry GCAATCGGAAACGGTTGC ((((.((....)).)))) , state whether its folding enthalpy is greater than or equal to -30 kcal/mol.
0

###

# protocol.summary: melting temperature; fluorescence melt of hairpins on a sequencing array, two-state fit, raised by 9.35 °C to match UV melts
# test.conditions: sodium 0.088 M
Define the label as YES when Tm is strictly less than 50 °C and as NO in all remaining cases.

{"columns": ["seq", "category.label"],
 "data": [
  ["GGGGGCGAAAGCCAACCC ((((((....)))..)))", "NO"],
  ["GCTATGCGAAAGCAGAGC (((.(((....))).)))", "NO"]
]}

hey, is Tm for GACCAAGGAAACTCGGTC ((((.((....)).)))) lower than 50 °C or not?
YES

Record GTGCTGCGAAAGCATCAC (((.(((....))).))) : is its Tm strictly below 50 °C?
NO

Threshold test, Tm < 50 °C: GCTTAACGAAAGTTTAGC (((.(((....))).)))
YES

Bench note: check whether GCATGGCGAAAGCTTTGC (((..((....))..))) shows Tm below 50 °C
YES

API: query returns whether the sequence falls strictly under 50 °C in Tm. Query: GTCATCGGAAACGACGAC (((.(((....))).)))
YES

Answer whether the sequence GATCGATGTATCGATC ((((((....)))))) has Tm strictly less than 50 °C
NO

Just wondering, is Tm of GACAGCGGAAACGCTATC ((.((((....)))).)) below 50 °C?
YES

Hello, is Tm of the following sequence strictly smaller than 50 °C? GCGCCAGGAAACTAGCGC ((((.((....)).))))
NO

API: query returns whether the sequence falls strictly under 50 °C in Tm. Query: GATCGGGACACCGATC ((((((....))))))
NO

Here's an entry: GAGCTGGAAACAGCTC ((((((....)))))) . Is its Tm below 50 °C?
NO

###

# protocol.summary: melting temperature; fluorescence melt of hairpins on a sequencing array, two-state fit, raised by 9.35 °C to match UV melts
# test.conditions: sodium 0.088 M
Please respond with YES when measured Tm is strictly beneath 60 °C, and with NO in all other cases.

Please review the entries below; each comes with its answer.
{"columns": ["seq", "category.label"],
 "data": [
  ["GCAGGGCGAAAGCACGGC ((.(.((....)).).))", "NO"],
  ["GCATACGGAAACGTGTGC (((.(((....))).)))", "YES"],
  ["GCATGGTCGAAAGACTGC (((..(((....))))))", "YES"],
  ["GCATCCGAAAGGAGTGC ((((((....))).)))", "YES"]
]}

Is Tm strictly under 60 °C for the entry GTGTCAGGAAACTGATAC ((.((((....)))).)) ?
YES
